System: A549 cells
Assay: competition cell experiment: inhibition of the uptake of 4R/S-[F-18]F-L-glutamic acid (tracer)
Type: cell-based, human
Settings: A549 cells, 10 min of incubation with 0.250 MBq of 4R/S-[F-18]F-L-Glu in PBS buffer, competitor concentration 1 mM; control = 100.0
Description: The uptake of the glutamic acid derivatives according to the invention into tumour cells was investigated in cell experiments. Here, the uptake of a radiolabelled glutamic acid derivative (4R/S—[F-18]F-L-glutamic acid) was examined in the presence of the compounds according to the invention (competition experiments). The compounds according to the invention were employed in excess (1 mM) over 4R/S—[F-18]F-L-glutamic acid (tracer). […]
Assay endpoint: % Tracer uptake (%)
Quick reminder: number only, in %, skip the unit.

In plain terms, NC(CC(OC1CC(F)C1)C(=O)O)C(=O)O (stereo not shown) has a documented % Tracer uptake of 5.7

In plain terms, "N[C@@H](C[C@H](CCCCCCF)C(=O)O)C(=O)O" has a documented % Tracer uptake of 6.3

In plain terms, "C[C@@H](C[C@H](N)C(=O)O)C(=O)O" has a documented % Tracer uptake of 7.7

In plain terms, "N[C@@H](CCC(=O)O)C(=O)O" has a documented % Tracer uptake of 12.6

In plain terms, N[C@@H](C[C@H](O)C(=O)O)C(=O)O [(4S)-hydroxy-Glu] has a documented % Tracer uptake of 13.2

In plain terms, "N[C@@H](C[C@H](CCCF)C(=O)O)C(=O)O" has a documented % Tracer uptake of 5.4

In plain terms, NC(CC(F)C(=O)O)C(=O)O (racemic) [4-(R/S)-fluoro-D/L-Glu] has a documented % Tracer uptake of 16.3
